Origin of measurements: the Immune Epitope Database (IEDB)

- tested_on: HLA-A*68:01
- run_description: IEDB peptide-MHC binding, purified MHC/competitive/radioactivity; filed as Kd, often an IC50 or EC50 that approximates it; bounds were set here for any values at or beyond the usual limits of such assays
- assay_conditions: source organism: Dengue virus 1 Singapore/S275/1990
pKd: −log10 of the molar value.

sequence_record | pKd
MVGANASDR | 7.34

---

- tested_on: HLA-A*02:03
- run_description: IEDB peptide-MHC binding, purified MHC/competitive/fluorescence; filed as Kd, often an IC50 or EC50 that approximates it; bounds were set here for any values at or beyond the usual limits of such assays
- assay_conditions: source organism: Fowlpox virus

sequence_record | tested_on | Kd
VIMWYNYLF | HLA-A*02:03 | ≥ 20 µM

---

- tested_on: HLA-A*26:02
- run_description: IEDB peptide-MHC binding, purified MHC/direct/fluorescence; filed as Kd, often an IC50 or EC50 that approximates it; bounds were set here for any values at or beyond the usual limits of such assays
- assay_conditions: source organism: Influenza A virus (A/Taiwan/2/2006(H1N1))

sequence_record | Kd
EKPKFLPDL | ≥ 20 µM

---

- tested_on: HLA-A*31:01
- run_description: IEDB peptide-MHC binding, purified MHC/competitive/radioactivity; filed as Kd, often an IC50 or EC50 that approximates it; bounds were set here for any values at or beyond the usual limits of such assays
- assay_conditions: source organism: Dengue virus 1 Nauru/West Pac/1974
pKd: −log10 of the molar value.

sequence_record | pKd
GVTLFFLSGR | ≤ 4.15

---

- tested_on: HLA-B*15:01
- run_description: IEDB peptide-MHC binding, purified MHC/direct/fluorescence; filed as Kd, often an IC50 or EC50 that approximates it; bounds were set here for any values at or beyond the usual limits of such assays
- assay_conditions: source organism: Vibrio vulnificus
quantity_kind: Kd (nM)

sequence_record | assay_result
KVMALPIPH | 452

---

- tested_on: HLA-A*31:01
- run_description: IEDB peptide-MHC binding, purified MHC/direct/fluorescence; filed as Kd, often an IC50 or EC50 that approximates it; bounds were set here for any values at or beyond the usual limits of such assays
- assay_conditions: source organism: Pseudomonas aeruginosa
pKd: −log10 of the molar value.

sequence_record | pKd
SEYKAAGYL | ≤ 4.70
GEDDDMLPW | ≤ 4.70

---

- tested_on: HLA-B*54:01
- run_description: IEDB peptide-MHC binding, purified MHC/competitive/radioactivity; filed as Kd, often an IC50 or EC50 that approximates it; bounds were set here for any values at or beyond the usual limits of such assays
- assay_conditions: source organism: Mammarenavirus brazilense

sequence_record | Kd
APFMSDLQF | ≥ 36.3 µM

---

- tested_on: HLA-A*24:03
- run_description: IEDB peptide-MHC binding, purified MHC/direct/fluorescence; filed as Kd, often an IC50 or EC50 that approximates it; bounds were set here for any values at or beyond the usual limits of such assays
- assay_conditions: source organism: Vibrio cholerae

sequence_record | Kd
IPISGRITA | ≥ 20 µM

---

- tested_on: HLA-A*02:06
- run_description: IEDB peptide-MHC binding, purified MHC/competitive/radioactivity; filed as Kd, often an IC50 or EC50 that approximates it; bounds were set here for any values at or beyond the usual limits of such assays
- assay_conditions: source organism: Dengue virus 2 16681-PDK53

sequence_record | unit_abbreviation | Kd
LQMENKAWLV | nM | 1.17

---

- tested_on: HLA-A*02:03
- run_description: IEDB peptide-MHC binding, purified MHC/competitive/fluorescence; filed as Kd, often an IC50 or EC50 that approximates it; bounds were set here for any values at or beyond the usual limits of such assays
- assay_conditions: source organism: Entamoeba histolytica HM-1:IMSS
pKd: −log10 of the molar value.

sequence_record | tested_on | pKd
EVRKAIEFV | HLA-A*02:03 | ≤ 4.70

---

- tested_on: HLA-A*01:01
- run_description: IEDB peptide-MHC binding, purified MHC/competitive/fluorescence; filed as Kd, often an IC50 or EC50 that approximates it; bounds were set here for any values at or beyond the usual limits of such assays
- assay_conditions: source organism: Vibrio cholerae
pKd: −log10 of the molar value.
quantity_kind: pKd

sequence_record | quantity_kind | assay_result
TRAPAPFPL | pKd | ≤ 5.30

---

- tested_on: HLA-C*14:02
- run_description: IEDB peptide-MHC binding, purified MHC/direct/fluorescence; filed as Kd, often an IC50 or EC50 that approximates it; bounds were set here for any values at or beyond the usual limits of such assays
- assay_conditions: source organism: Escherichia coli str. K-12 substr. MG1655

sequence_record | Kd
AYPELACAV | ≤ 1 nM

---

- tested_on: HLA-B*15:17
- run_description: IEDB peptide-MHC binding, purified MHC/direct/fluorescence; filed as Kd, often an IC50 or EC50 that approximates it; bounds were set here for any values at or beyond the usual limits of such assays
- assay_conditions: source organism: Vibrio vulnificus YJ016

sequence_record | tested_on | unit_abbreviation | Kd
IVAQGIAAL | HLA-B*15:17 | µM | 0.0475

---

- tested_on: HLA-A*02:01
- run_description: IEDB peptide-MHC binding, purified MHC/competitive/fluorescence; bounds were set here for any values at or beyond the usual limits of such assays
- assay_conditions: source organism: Vaccinia virus
pIC50: −log10 of the molar value.
// values below are reported pIC50

sequence_record | bound_operator | pIC50
SQYVDDANL | = | 4.34
LSNGMLRFA | = | 5.25
LLSQYVDDA | = | 4.63
KFPYEGGKV | ≤ | 4.02

---

- tested_on: HLA-A*01:01
- run_description: IEDB peptide-MHC binding, purified MHC/competitive/fluorescence; bounds were set here for any values at or beyond the usual limits of such assays
- assay_conditions: source organism: Variola virus

sequence_record | unit_abbreviation | IC50
LSLTKLFSY | µM | 3.71

---

- tested_on: HLA-B*45:06
- run_description: IEDB peptide-MHC binding, purified MHC/competitive/fluorescence; filed as Kd, often an IC50 or EC50 that approximates it; bounds were set here for any values at or beyond the usual limits of such assays
- assay_conditions: source organism: West Nile virus
pKd: −log10 of the molar value.

sequence_record | pKd
ETTNWLWAF | ≤ 5.30

---

- tested_on: HLA-A*01:01
- run_description: IEDB peptide-MHC binding, purified MHC/direct/fluorescence; filed as Kd, often an IC50 or EC50 that approximates it; bounds were set here for any values at or beyond the usual limits of such assays
- assay_conditions: source organism: Burkholderia mallei
pKd: −log10 of the molar value.
quantity_kind: pKd

sequence_record | assay_result
ISDSAQNMM | 5.98

---

- tested_on: HLA-B*08:01
- run_description: IEDB peptide-MHC binding, purified MHC/direct/fluorescence; filed as Kd, often an IC50 or EC50 that approximates it; bounds were set here for any values at or beyond the usual limits of such assays
- assay_conditions: source organism: Influenza A virus (A/chicken/Vietnam/5/2003(H5N1))
quantity_kind: Kd

sequence_record | assay_result
RVDKLTQGR | ≥ 20 µM

---

- tested_on: HLA-B*27:05
- run_description: IEDB peptide-MHC binding, purified MHC/direct/fluorescence; filed as Kd, often an IC50 or EC50 that approximates it; bounds were set here for any values at or beyond the usual limits of such assays
- assay_conditions: source organism: Reston ebolavirus - Reston
pKd: −log10 of the molar value.

sequence_record | pKd
RRELSKEKL | ≤ 4.70

---

- tested_on: HLA-A*02:01
- run_description: IEDB peptide-MHC binding, purified MHC/competitive/radioactivity; filed as Kd, often an IC50 or EC50 that approximates it; bounds were set here for any values at or beyond the usual limits of such assays
- assay_conditions: source organism: Dengue virus 2 Thailand/NGS-C/1944
quantity_kind: Kd (nM)

sequence_record | quantity_kind | unit_abbreviation | assay_result
LQMENKAWLV | Kd | nM | 10.1

---

- tested_on: HLA-B*08:01
- run_description: IEDB peptide-MHC binding, purified MHC/direct/fluorescence; filed as Kd, often an IC50 or EC50 that approximates it; bounds were set here for any values at or beyond the usual limits of such assays
- assay_conditions: source organism: Yersinia pestis

sequence_record | Kd
YGIPFPGSL | ≥ 20 µM

---

// values below are reported Kd
- tested_on: HLA-B*18:01
- run_description: IEDB peptide-MHC binding, purified MHC/competitive/fluorescence; filed as Kd, often an IC50 or EC50 that approximates it; bounds were set here for any values at or beyond the usual limits of such assays
- assay_conditions: source organism: Giardia lamblia ATCC 50803
quantity_kind: Kd

sequence_record | assay_result
TEDDWITYI | ≥ 20 µM
NAMGADYYA | ≥ 20 µM

---

- tested_on: HLA-B*08:01
- run_description: IEDB peptide-MHC binding, purified MHC/competitive/radioactivity; filed as Kd, often an IC50 or EC50 that approximates it; bounds were set here for any values at or beyond the usual limits of such assays
- assay_conditions: source organism: Dengue virus 3 Martinique/1243/1999
pKd: −log10 of the molar value.
quantity_kind: pKd

sequence_record | assay_result
YQLWTALISL | 5.88
MAMTDTTPF | 6.64
